Assay: MB-102 pig plasma concentration after subcutaneous dosing
Format: in vivo
Settings: Yorkshire, pig, plasma, subcutaneous, 3.2 mg/kg, pig 53701, SubQ, 3.2 mpk, 105 min; read-out: MB-102 Pig Plasma Conc.
outcome.measure: concentration at 105 min
Report the figure along with its unit, number first.

# input Bench note: what concentration at 105 min did `Nc1nc(C(=O)N[C@H](CO)C(=O)O)c(N)nc1C(=O)N[C@H](CO)C(=O)O` show?
# output 4230 ng/mL

---

Assay: MB-102 pig plasma concentration after subcutaneous dosing
Assay type: in vivo
Conditions: Yorkshire, pig, plasma, subcutaneous, 3.2 mg/kg, pig 53701, SubQ, 3.2 mpk, 90 min; read-out: MB-102 Pig Plasma Conc.
outcome.measure: concentration at 90 min (ng/mL)
Write the answer as a number in ng/mL, unit excluded.

# input Bench note: what concentration at 90 min did `Nc1nc(C(=O)N[C@H](CO)C(=O)O)c(N)nc1C(=O)N[C@H](CO)C(=O)O` show?
# output 4720
